Examples of compounds with documented melting point follow.

Output measured melting point for this item: COc1ccc(-c2nn(-c3ccccc3)c3nccc(-c4ccc(F)cc4)c23)cc1
171 to 173 °C

Return value of melting point for input COc1ccc(-c2nn(-c3ccccc3)c3nccc(-c4ccccc4)c23)cc1 , no commentary.
161 to 163 °C

Supply reported melting point belonging to this compound: COc1ccc(-c2nn(-c3ccccc3)c3nc(-c4ccccc4)c(C#N)c(-c4ccc(OC)c(OC)c4)c23)cc1 [Compound 14h]
212 to 214 °C

Tell me melting point reported for COc1ccc(-c2nn(-c3ccccc3)c3nc(-c4ccccc4)c(C#N)c(-c4ccc(N(C)C)cc4)c23)cc1 [Compound 14f]
230 to 232 °C
